target: Neu5Ac(a2-3)Gal(b1-3)GalNAc(b1-3)Gal(a1-4)Gal(b1-4)Glc; assay: glycan array binding signal (z-score within array); higher = stronger binding; settings: glycan notation: IUPAC condensed, linker removed
The full list was thinned out, with the strongest signals kept by preference.
experimental endpoint: glycan array binding signal (z-score)

{"binder": "HMGB1 (Rattus norvegicus), P63159 (protein) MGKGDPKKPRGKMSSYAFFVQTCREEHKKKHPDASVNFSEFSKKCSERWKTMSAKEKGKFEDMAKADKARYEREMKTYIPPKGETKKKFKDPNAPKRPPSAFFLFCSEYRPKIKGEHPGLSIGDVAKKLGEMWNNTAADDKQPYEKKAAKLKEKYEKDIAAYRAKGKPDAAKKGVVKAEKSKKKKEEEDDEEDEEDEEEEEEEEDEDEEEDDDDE", "experimental endpoint": "glycan array binding signal (z-score)", "reported result": -0.21}
{"binder": "CPA (Cicer arietinum) (protein) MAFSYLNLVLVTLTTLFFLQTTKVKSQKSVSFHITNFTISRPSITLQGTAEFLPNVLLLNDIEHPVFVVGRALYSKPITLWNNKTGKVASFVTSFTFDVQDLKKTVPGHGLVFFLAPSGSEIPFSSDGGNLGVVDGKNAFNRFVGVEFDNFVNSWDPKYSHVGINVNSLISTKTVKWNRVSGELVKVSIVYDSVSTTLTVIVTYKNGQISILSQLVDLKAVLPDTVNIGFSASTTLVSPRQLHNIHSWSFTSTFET", "experimental endpoint": "glycan array binding signal (z-score)", "reported result": -0.601}
{"binder": "CD83 (Homo sapiens) (protein) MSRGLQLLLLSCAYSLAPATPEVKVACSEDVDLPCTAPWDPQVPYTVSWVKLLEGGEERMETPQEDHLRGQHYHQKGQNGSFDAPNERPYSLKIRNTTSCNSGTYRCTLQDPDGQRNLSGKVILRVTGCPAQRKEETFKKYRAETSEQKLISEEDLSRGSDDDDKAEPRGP", "experimental endpoint": "glycan array binding signal (z-score)", "reported result": 0.647}
